- System name: P. falciparum apicoplast DNA polymerase (Pf-apPOL) (Plasmodium falciparum, UniProt Q8ILY1)
- Sequence (Q8ILY1 entry or part of it): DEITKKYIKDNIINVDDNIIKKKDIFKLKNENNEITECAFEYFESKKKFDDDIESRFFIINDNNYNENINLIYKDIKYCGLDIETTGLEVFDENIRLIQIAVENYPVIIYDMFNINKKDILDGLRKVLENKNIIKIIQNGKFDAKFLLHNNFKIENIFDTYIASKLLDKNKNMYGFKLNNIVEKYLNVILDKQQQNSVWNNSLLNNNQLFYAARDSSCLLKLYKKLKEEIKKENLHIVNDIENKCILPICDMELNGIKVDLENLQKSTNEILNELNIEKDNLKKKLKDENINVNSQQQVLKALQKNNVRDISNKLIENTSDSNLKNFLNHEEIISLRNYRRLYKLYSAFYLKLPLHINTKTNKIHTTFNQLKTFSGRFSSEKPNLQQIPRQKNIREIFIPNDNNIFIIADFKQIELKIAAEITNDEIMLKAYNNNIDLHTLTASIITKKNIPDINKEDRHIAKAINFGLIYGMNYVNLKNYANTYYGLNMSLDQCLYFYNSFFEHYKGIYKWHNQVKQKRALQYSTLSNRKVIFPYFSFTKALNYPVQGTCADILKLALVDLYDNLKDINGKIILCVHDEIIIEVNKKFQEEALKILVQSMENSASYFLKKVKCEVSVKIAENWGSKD
- Protocol description: Fluorescence-based high-throughput DNA polymerase assay (molecular beacon), primary screen and dose-response
- Assay type: biochemical
- Test settings: DRC-2; read at 5'; concentration 5
Property: % inhibition Apo pol 5' 5 (%)
One number for each entry, in %.

Field: example entries. Status: answers known.
- Compound: "N#Cc1c(O)nc(N2CCCCC2)nc1-c1ccc2c(c1)OCO2"
  System name: "P. falciparum apicoplast DNA polymerase (Pf-apPOL) (Plasmodium falciparum, UniProt Q8ILY1)"
  Experimental result: 27
- Compound: "Cc1ccc(N2CCC(NC(=O)Cc3cccs3)C2=O)cc1C (stereo not shown)"
  System name: "P. falciparum apicoplast DNA polymerase (Pf-apPOL) (Plasmodium falciparum, UniProt Q8ILY1)"
  Experimental result: 2.54
- Compound: "Cc1ccsc1Cn1c(C)ccc1C"
  System name: "P. falciparum apicoplast DNA polymerase (Pf-apPOL) (Plasmodium falciparum, UniProt Q8ILY1)"
  Experimental result: 5.66

Task: Please list % inhibition Apo pol 5' 5 recorded for the compound Cn1nc(-c2nc(-c3ccccc3)no2)c2c1CCN(C(=O)Cc1cccs1)C2
Result: 10

---

- System name: P. falciparum apicoplast DNA polymerase (Pf-apPOL) (Plasmodium falciparum, UniProt Q8ILY1)
- Protocol description: Fluorescence-based high-throughput DNA polymerase assay (molecular beacon), primary screen and dose-response
- Assay type: biochemical
- Test settings: DRC-1; 90'; conc 80
Property: % inhibition Apol 90' (%)
Give bare numbers, in %.

- Compound: "Cc1ccccc1NC(=O)Cn1ccc2c(=O)[nH]ccc21 [Molecule 50, O=C(Cn1ccc2c1cc[nH]c2=O)Nc1ccc(cc1)C]"
  System name: "P. falciparum apicoplast DNA polymerase (Pf-apPOL) (Plasmodium falciparum, UniProt Q8ILY1)"
  Units text: "%"
  Experimental result: 91.6504

Could I get % inhibition Apol 90' for every one of these entries?
1. Cc1cccc(C2=N/C(=C\c3ccc([N+](=O)[O-])o3)C(=O)O2)c1 [KU0058960]
2. C=CC1=C(C)c2cc3[nH]c(cc4nc(cc5[nH]c(cc1n2)c(C)c5CCC(=O)O)C(CCC(=O)O)=C4C)c(C)c3C=C [Molecule 91]

Result:
1: 92.5412; 2: 94.048

Could I get % inhibition Apol 90' for every one of these entries?
1. CC(C)CCNC(=O)c1cnn2c(O)cc(CSc3ccc(Cl)cc3)nc12 [Molecule 101]
2. N#CC(C#N)=C1SCN(c2cccc(Cl)c2)CS1 [Molecule 29, N#CC(=C1SCN(CS1)c1cccc(c1)Cl)C#N]
3. O=C1Nc2ccc(I)cc2C1=Cc1cc(Br)c(O)c(Br)c1 [Molecule 27]
4. Cc1cccc(NC(=O)Cn2ccc3c(=O)[nH]ccc32)c1C [Molecule 11, O=C(Cn1ccc2c1cc[nH]c2=O)Nc1cccc(c1C)C]
5. Cc1ccc(CNC(=O)c2cnn3c(O)cc(CSc4ccc(Cl)cc4)nc23)cc1 [Molecule 99]

Result:
[96.2635, 95.5447, 93.708, 90.9413, 96.0616]

---

- System name: P. falciparum apicoplast DNA polymerase (Pf-apPOL) (Plasmodium falciparum)
- Protocol description: Fluorescence-based high-throughput DNA polymerase assay (molecular beacon), primary screen and dose-response
- Type: biochemical
- Test settings: DRC-2; 40'; conc 40
Property: % inhibition Apol 40'
Answer format reminder: number followed by unit.

Field: example entries. Status: answers known.
- Molecule: "Cc1ccc(NC(=O)Cn2ccc3c(=O)[nH]ccc32)c(C)c1 [KU0205125]"
  System name: "P. falciparum apicoplast DNA polymerase (Pf-apPOL) (Plasmodium falciparum)"
  % inhibition Apol 40': "70%"
- Molecule: "Cc1ccc(CNC(=O)c2cnn3c(O)cc(CSc4ccc(Cl)cc4)nc23)cc1 [Molecule 99]"
  System name: "P. falciparum apicoplast DNA polymerase (Pf-apPOL) (Plasmodium falciparum)"
  % inhibition Apol 40': "78%"
- Molecule: "Cc1ccc(N2NC(=O)/C(=C\\c3ccc(O)c([N+](=O)[O-])c3)C2=O)cc1Cl [KU0058427]"
  System name: "P. falciparum apicoplast DNA polymerase (Pf-apPOL) (Plasmodium falciparum)"
  % inhibition Apol 40': "64%"
- Molecule: "C=CC1=C(C)c2cc3[nH]c(cc4nc(cc5[nH]c(cc1n2)c(C)c5CCC(=O)O)C(CCC(=O)O)=C4C)c(C)c3C=C [Molecule 91]"
  System name: "P. falciparum apicoplast DNA polymerase (Pf-apPOL) (Plasmodium falciparum)"
  % inhibition Apol 40': "69%"
- Molecule: "O=C(O)c1ccc(COc2cc([N+](=O)[O-])cc3cccnc23)cc1 [KU0058403]"
  System name: "P. falciparum apicoplast DNA polymerase (Pf-apPOL) (Plasmodium falciparum)"
  % inhibition Apol 40': "59%"
- Molecule: "Cc1ccccc1NC(=O)Cn1ccc2c(=O)[nH]ccc21 [Molecule 50, O=C(Cn1ccc2c1cc[nH]c2=O)Nc1ccc(cc1)C]"
  System name: "P. falciparum apicoplast DNA polymerase (Pf-apPOL) (Plasmodium falciparum)"
  % inhibition Apol 40': "70%"
- Molecule: "Cc1cccc(C2=N/C(=C\\c3ccc([N+](=O)[O-])o3)C(=O)O2)c1 [KU0058960]"
  System name: "P. falciparum apicoplast DNA polymerase (Pf-apPOL) (Plasmodium falciparum)"
  % inhibition Apol 40': "64%"
- Molecule: "CC(C)CCNC(=O)c1cnn2c(O)cc(CSc3ccc(Cl)cc3)nc12 [Molecule 101]"
  System name: "P. falciparum apicoplast DNA polymerase (Pf-apPOL) (Plasmodium falciparum)"
  % inhibition Apol 40': "76%"
- Molecule: "O=C1Nc2ccc(I)cc2C1=Cc1cc(Br)c(O)c(Br)c1 [Molecule 27]"
  System name: "P. falciparum apicoplast DNA polymerase (Pf-apPOL) (Plasmodium falciparum)"
  % inhibition Apol 40': "71%"
- Molecule: "O=c1nc(/C=C/c2ccc(Br)cc2)oc2ccccc12 [KU0052629]"
  System name: "P. falciparum apicoplast DNA polymerase (Pf-apPOL) (Plasmodium falciparum)"
  % inhibition Apol 40': "77%"

Could I get % inhibition Apol 40' for every one of these entries?
1. CCOc1nc2cccc(C(=O)OC(C)OC(=O)OC3CCCCC3)c2n1Cc1ccc(-c2ccccc2-c2nnn[nH]2)cc1 (stereo not drawn) [Molecule 94]
2. Cc1cc(C)c2c(c1)C1C=CCC1C(c1ccc(C(=O)O)cc1)N2 (stereo not drawn) [Molecule 102]

Result:
["74%", "76%"]

Could I get % inhibition Apol 40' for every one of these entries?
1. Cc1cccc(NC(=O)Cn2ccc3c(=O)[nH]ccc32)c1C [Molecule 11, O=C(Cn1ccc2c1cc[nH]c2=O)Nc1cccc(c1C)C]
2. C=CCOc1c(Br)cc(Br)cc1/C=C1\SC(=N)NC1=O [KU0051640]
3. COC(=O)c1sc(-c2ccc(C(C)(C)C)cc2)cc1NC(=O)CCC(=O)O [Molecule 87]
4. O=C1NN(c2ccc(Cl)c(Cl)c2)C(=O)/C1=C/c1ccc(-c2ccc3c(c2)C(=O)OC3)o1 [Molecule 90]
5. COc1ccccc1C1CC(=O)Oc2cc3c(cc21)OCO3 (stereo not drawn) [KU0104502]
6. N#CC(C#N)=C1SCN(c2cccc(Cl)c2)CS1 [Molecule 29, N#CC(=C1SCN(CS1)c1cccc(c1)Cl)C#N]

Result:
1: 69%; 2: 72%; 3: 72%; 4: 68%; 5: 75%; 6: 73%
